Tested on: SW-620 colon
Experiment: NCI tumour cell line growth inhibition, 48 h
Assignment: determine reported TGI for the given compounds.

Task: # query: TGI of entry C/C=C/[C@H]1O[C@@H]2C(=C[C@H]1O)C(=O)O[C@H]2C
Result: 14.2 µM

Task: # query: TGI of entry Cc1cccc(N2C(=O)C(=O)C(c3nc4ccccc4s3)/C(=N/NC(=S)NN)C2=O)c1C (centres undefined)
Result: > 100 µM

Task: # query: TGI of entry NC(Cc1ccc(S(=O)(=O)O)cc1)C(=O)NC(Cc1ccc(S(=O)(=O)O)cc1)C(=O)NC(Cc1ccc(S(=O)(=O)O)cc1)C(=O)O (centres undefined)
Result: > 100 µM

Task: # query: TGI of entry O=C1NC(=O)/C(=C/c2ccc(S(=O)(=O)N/N=C\C(O)C(O)C(O)C(O)CO)cc2)N1 (centres undefined)
Result: > 100 µM
